Tested on: A549/ATCC NSCLC
Test: NCI-60 one-dose screen, 48 h
Details: 10 µM
About 83,000 compounds went through this panel and 20% of them were active in at least one assay; those are over-represented in the sample as a whole. The source made the active and inactive calls. Rule for the calls: active = growth percent below 10; inactive = the rest.
Reply using exactly one outcome from Y (active), N (inactive)

// known answers, use as guide
| Compound | Assigned Class |
| --- | --- |
| O=[N+]([O-])c1cc[n+]([O-])c2ccccc12 | Y |
| O=C1C(=O)c2ccccc2-c2ccccc21 | Y |
| O=[N+]([O-])c1ccc(Br)c([N+](=O)[O-])c1 | N |
| C#CC1(O)CCC(C(C)(C)C)CC1 (stereo not drawn) | N |
| CC1CCC2(OC1)OC1C(O)C3C4CCC5CC(OC6OC(CO)C(OC7OC(CO)C(O)C(OC8OCC(O)C(O)C8O)C7OC7OC(CO)C(O)C(OC8OC(CO)C(O)C(O)C8O)C7O)C(O)C6O)C(O)CC5(C)C4CCC3(C)C1C2C (stereo not drawn) | Y |

IN: For this compound, state the assay outcome: `NC(=O)c1cc([N+](=O)[O-])c(Cl)c([N+](=O)[O-])c1Cl`
OUT: N
